- targetDesc: T1, recombinant human IL-23 (hrIL-23), produced at Centocor (human, UniProt P29460 23-328)
- T1 sequence 1: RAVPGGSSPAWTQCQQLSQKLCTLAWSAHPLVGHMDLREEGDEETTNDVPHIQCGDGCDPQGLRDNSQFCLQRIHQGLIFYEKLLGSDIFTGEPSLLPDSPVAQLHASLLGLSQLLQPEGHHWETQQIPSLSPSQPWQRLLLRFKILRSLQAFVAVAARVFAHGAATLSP
- T1 sequence 2: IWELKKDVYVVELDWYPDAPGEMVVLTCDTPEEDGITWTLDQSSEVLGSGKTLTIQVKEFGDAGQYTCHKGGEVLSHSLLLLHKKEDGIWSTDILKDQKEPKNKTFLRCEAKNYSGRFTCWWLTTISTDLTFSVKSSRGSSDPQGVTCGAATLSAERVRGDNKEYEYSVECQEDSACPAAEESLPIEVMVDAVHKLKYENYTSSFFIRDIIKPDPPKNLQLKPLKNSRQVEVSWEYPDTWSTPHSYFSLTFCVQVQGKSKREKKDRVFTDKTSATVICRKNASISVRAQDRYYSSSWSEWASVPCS
- testSummary: cell-based or functional assay
recordedEndpoint: Inhibition of IL-17 production, IC50 (µg/mL)
Give just the number in µg/mL; leave the unit off.

# binder, unitsSymbol, measuredValue
records = [
    ("mAb MOR05059 (antibody, IgG1, V domains shown) VH: QVELVQSGAEVKKPGESLKISCKGSGYSFSNYWIGWVRQMPGKGLEWMGIIDPSNSYTNYSPSFQGQVTISADKSISTAYLQWSSLKASDTAMYYCARWYYKPFDVWGQGTLVTVSS VL: DIVLTQPPSVSGAPGQRVTISCTGSSSNIGSGYDVHWYQQLPGTAPKLLIYGNSKRPSGVPDRFSGSKSGTSASLAITGLQSEDEADYYCSWTSVVFGGGTKLTVL", "µg/mL", 0.0106),
]

Lab note: mAb MOR05030 (antibody, IgG1, V domains shown) VH: QVELVQSGAEVKKPGSSVKVSCKASGGTFSSNYISWVRQAPGQGLEWMGGIIPIFGHANYAQKFQGRVTITADESTSTAYMELSSLRSEDTAVYYCARSKKGMYGGWTYPLMMFDLWGQGTLVTVSS VL: DIVLTQSPATLSLSPGERATLSCRASQSVSSNYLAWYQQKPGQAPRLLIYYASRRATGVPARFSGSGSGTDFTLTISSLEPEDFAYYCQQPFTFGQGTKVEIK gave Inhibition of IL-17 production, IC50 of 0.0646

Sample mAb MOR05029 (antibody, IgG1, V domains shown) VH: QVELVQSGAEVKKPGSSVKVSCKASGGTFSSNYISWVRQAPGQGLEWMGGIIPIFGHANYAQKFQGRVTITADESTSTAYMELSSLRSEDTAVYYCARSKKGMYGGWTYPLMMFDLWGQGTLVTVSS VL: DIVLTQSPATLSLSPGERATLSCRASQSVSSNYLAWYQQKPGQAPRLLIYYASRRATGVPARFSGSGSGTDFTLTISSLEPEDFAYYCQQTFGQGTKVEIK ; Inhibition of IL-17 production, IC50 observed: 0.0491
